Data origin, for the record: ChEMBL document CHEMBL2406990

Please go through the items and note down their pIC50.
- Test system: MDA-MB-231
- experimentalDetails: Cytotoxicity against human MDA-MB-231 cells after 72 hrs by SRB assay
- Assay type: functional, cell-based
- experimentalParameters: MDA-MB-231, 72 h
pIC50: −log10 of the molar value.

>>> print(df.to_string())
                                   compound    testedon  recordedresult
0  CC1=C[C@@H](C[C@@H](C(=O)O)[C@@H]2CNC(=N)N2)OC1=O  MDA-MB-231          < 5.00
1  CC1=C[C@@H](C[C@@H](C(=O)O)[C@@H]2CN(CC(O)CCO)C(=N)N2)OC1=O (some centres undefined)  MDA-MB-231          < 5.00
2  C/C(=C\CC[C@@H](C(=O)O)[C@@H]1CN(CC(O)CCO)C(=N)N1)CO (some centres undefined)  MDA-MB-231          < 5.00

Query block: Report pIC50 for CC(C)=CCC[C@@H](C(=O)O)[C@@H]1CN(CC(O)CCO[C@H]2OC[C@@H](O)[C@H](O)[C@H]2O)C(=N)N1 (some centres undefined) please.
Result block: < 5.00
